Test system: LIMK2
experimental.parameters: concentration: 1 μM,replicates: in singlicate; n = 1;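 further: KINOMEscan kinase panel screen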
parameter.measured: %Inh
Kindly format the answer as number then unit.

Consider the following illustrative entries.
Cl.Oc1cc(-c2nc(-c3ccccc3)[nH]c2-c2ccncc2)ccc1Cl [SB-386023]
0%
C[C@H]1Oc2cc(cnc2N)-c2c(nn(C)c2C#N)CN(C)C(=O)c2ccc(F)cc21
0%
C[C@@H](Oc1cc(-c2cnn(C3CCNCC3)c2)cnc1N)c1c(Cl)ccc(F)c1Cl
18%
Cl.Cl.NC[C@H](Cc1ccc(C(F)(F)F)cc1)NC(=O)c1cc(Br)c(-c2ccnc3[nH]ccc23)s1 [GSK1487252]
0%

For each of the items listed, what is its %Inh?
1. CCn1c(-c2nonc2N)nc2c(C#CC(C)(C)O)nc(OCCN)cc21.Cl.Cl [GSK902056]
2. Cl.Cl.NC[C@H](CC1CCCCC1)NC(=O)c1cc(Br)c(-c2ccnc3[nH]ccc23)s1 [GSK1581427]
3. Cc1n[nH]c2ccc(-c3cc(OC[C@@H](N)Cc4ccccc4)cnc3-c3ccoc3)cc12.O=C(O)C(F)(F)F.O=C(O)C(F)(F)F [GSK507358]
4. NC(=O)c1cc(-c2ccccc2)cc2c(C3CCNCC3)c[nH]c12 [GSK301362]

OUTPUT:
["0%", "0%", "14%", "20%"]

====

Tested on: FGFR2
experimental.parameters: concentration: 1 μM,replicates: in singlicate; n = 1
API: label(entry) gives Y if the entry's %Inh is strictly smaller than 30%; on equality or larger values it gives N.

Cc1ccc2c(-c3ccncc3)c(-c3ccc(F)cc3)nn2c1.Cl [GW461484]
Y
CC(C)N1C(=O)Cc2cc(Nc3ncc(C(F)(F)F)c(NCc4cccc(S(C)(=O)=O)c4)n3)ccc21
N
Cl.Cl.Nc1nc(-c2ccc3c(N)n[nH]c3c2)cc(N2CCCC(NC(=O)c3ccccc3)C2)n1 (centres unmarked) [GSK2286775]
Y
O=C(NCCNc1ccnc(NCc2ccc(F)cc2)n1)c1cc2ccccc2s1 [GSK1379944]
Y
CNC(=O)c1ccccc1Sc1ccc2c(/C=C/c3ccccn3)n[nH]c2c1
N

Could you now look at the following molecule, please?
INPUT: Please let me know if CCN(CC)CCOc1ccc(Nc2ncc3cc(-c4c(Cl)cccc4Cl)c(=O)n(C)c3n2)cc1 [SB-601273] shows %Inh below 30%.
OUTPUT: N

====

System: DYRK1A
experimental.parameters: concentration: 1 μM,replicates: in singlicate; n = 1
parameter.measured: %Inh (%)
Give bare numbers, in %.

Example entries begin here.
CN(C)CCOc1ccc(-c2cc(-c3c[nH]nc3-c3ccccn3)ccn2)cc1 [GW835314]
1
Cl.Cl.Nc1nc(-c2ccc3c(N)n[nH]c3c2)cc(N2CCCC(NC(=O)c3ccccc3)C2)n1 (stereo not drawn) [GSK2286775]
9
O=C(NCCNc1ccnc(NCc2ccc(F)cc2)n1)c1cc2ccccc2s1 [GSK1379944]
30
Cc1occc1-c1nc(N)c(OC[C@@H](N)Cc2c[nH]c3ccccc23)cc1-c1cc2c(C)n[nH]c2cn1 [GSK1660450]
100
Cc1ccc2c(-c3ccncc3)c(-c3ccc(F)cc3)nn2c1.Cl [GW461484]
0
CC(C)Nc1cc(-c2ccc3c(N)n[nH]c3c2)nc(N)n1 [GSK2221681]
50
C[C@@H](Oc1cc(-c2cnn(C3CCNCC3)c2)cnc1N)c1c(Cl)ccc(F)c1Cl
12
Cl.Cl.NC[C@H](Cc1ccc(C(F)(F)F)cc1)NC(=O)c1cc(Br)c(-c2ccnc3[nH]ccc23)s1 [GSK1487252]
35

Alright, here's another molecule for you.
INPUT: What does the data say about its %Inh? Entry: O=C(NCCCN1CCOC1=O)c1cnc(NCc2cc(Cl)ccc2Cl)nc1NC1CCCC1
OUTPUT: 0

Source: paper PMC5540273
